Where do these numbers come from? They come from patent EP4471048A1.

- target under test: T1, Nluc-IL23R fusion protein (human, UniProt Q5VWK5 22-629)
- T1 construct: range 22-629; Stably expressed in HEK293 cells; also called hIL-23R; human IL-23R; not shown: Nanoluc protein (N1371, Promega) at the N-terminus, after a secretion signal
- T1 sequence (looked up): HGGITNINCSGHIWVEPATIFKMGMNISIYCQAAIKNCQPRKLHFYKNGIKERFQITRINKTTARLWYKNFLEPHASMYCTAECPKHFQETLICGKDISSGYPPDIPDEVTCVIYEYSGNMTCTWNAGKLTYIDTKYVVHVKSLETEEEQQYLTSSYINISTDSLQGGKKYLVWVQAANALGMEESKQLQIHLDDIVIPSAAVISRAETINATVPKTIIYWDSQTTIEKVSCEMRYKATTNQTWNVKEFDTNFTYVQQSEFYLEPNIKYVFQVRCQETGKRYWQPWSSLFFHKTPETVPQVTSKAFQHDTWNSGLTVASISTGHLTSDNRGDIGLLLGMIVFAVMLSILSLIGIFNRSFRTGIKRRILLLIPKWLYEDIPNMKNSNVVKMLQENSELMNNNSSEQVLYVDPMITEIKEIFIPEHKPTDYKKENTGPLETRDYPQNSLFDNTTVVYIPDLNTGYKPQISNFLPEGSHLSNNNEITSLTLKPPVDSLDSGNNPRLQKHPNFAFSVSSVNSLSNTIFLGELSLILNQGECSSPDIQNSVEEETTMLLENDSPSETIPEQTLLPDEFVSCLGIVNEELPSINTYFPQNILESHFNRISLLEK
- assay explanation: BRET competition vs TAMRA-labelled peptide, Nluc-IL23R membranes
Bridges are numbered along the chain shown (N, C = ends). Primed or numbered codes have the meaning given here. Where no end group is shown, it is not given here. [ ]: non-standard residue; d: D form. 1,3‑dibromopropan‑2‑one″ = linker forming 1,3-dithio-propan-2-one bridge -SCH2C(=O)CH2S- between two Cys; Trp(1-Me) = Cn1cc(C[C@H](N)C(=O)O)c2ccccc21; 2Nal = N[C@@H](Cc1ccc2ccccc2c1)C(=O)O; AEF = NCCOc1ccc(C[C@H](N)C(=O)O)cc1; 3Pal = N[C@@H](Cc1cccnc1)C(=O)O; αMeL = CC(C)C[C@](C)(N)C(=O)O; 3Amb = NCc1cccc(C(=O)O)c1; dDab = NCC[C@@H](N)C(=O)O; Dab = NCC[C@H](N)C(=O)O; βAla = NCCC(=O)O
Below, each entry is listed alongside its reported % displacement.

>  <binder>
KTWQE[AEF][2Nal][αMeL]E[Dab][3Pal]-NHMe (lactam 1-9, N-5; SMILES CNC(=O)[C@H](Cc1cccnc1)NC(=O)[C@H](CCN)NC(=O)[C@@H]1CCC(=O)NCCCC[C@@H]2NC(=O)CC[C@H](NC(=O)[C@H](CCC(N)=O)NC(=O)[C@H](Cc3c[nH]c4ccccc34)NC(=O)[C@H]([C@@H](C)O)NC2=O)C(=O)N[C@@H](Cc2ccc(OCCN)cc2)C(=O)N[C@@H](Cc2ccc3ccccc3c2)C(=O)N[C@@](C)(CC(C)C)C(=O)N1) [Compound 36]

>  <% displacement>
100%

$$$$
>  <binder>
KGWQE[AEF][2Nal][αMeL]E[Dab][3Pal]-NHMe (lactam 1-9, N-5; SMILES CNC(=O)[C@H](Cc1cccnc1)NC(=O)[C@H](CCN)NC(=O)[C@@H]1CCC(=O)NCCCC[C@@H]2NC(=O)CC[C@H](NC(=O)[C@H](CCC(N)=O)NC(=O)[C@H](Cc3c[nH]c4ccccc34)NC(=O)CNC2=O)C(=O)N[C@@H](Cc2ccc(OCCN)cc2)C(=O)N[C@@H](Cc2ccc3ccccc3c2)C(=O)N[C@@](C)(CC(C)C)C(=O)N1) [Compound 44]

>  <% displacement>
100%

$$$$

Return reported % displacement; argument: ETWQE[AEF][2Nal][αMeL]K[Dab][3Pal]-NHMe (lactam 1-9, N-5; SMILES CNC(=O)[C@H](Cc1cccnc1)NC(=O)[C@H](CCN)NC(=O)[C@@H]1CCCCNC(=O)CC[C@@H]2NC(=O)CC[C@H](NC(=O)[C@H](CCC(N)=O)NC(=O)[C@H](Cc3c[nH]c4ccccc34)NC(=O)[C@H]([C@@H](C)O)NC2=O)C(=O)N[C@@H](Cc2ccc(OCCN)cc2)C(=O)N[C@@H](Cc2ccc3ccccc3c2)C(=O)N[C@@](C)(CC(C)C)C(=O)N1) [Compound 39] 98%

Return reported % displacement; argument: XTWQXXXXEXX (not fully specified; [{d}(N3)-K](1c)(6g)^†TWQ[Hpg](6g)[Y(2-aminoethoxy)][2-Nal][2-Me-Leu]E(1c)[Dab][3-(3-Pyridyl)-Ala]-[NHMe]; (1c) [2,11] lactam; (6g) [2,7] 1,4-disubstituted 1,2,3-triazole bridge; ^† alpha-amine converted into an azide in bridge) [Compound 42] 96%

Return reported % displacement; argument: KTVWQE[AEF][2Nal][αMeL]E[Dab][3Pal]-NH2 (lactam 1-10, N-6; SMILES CC(C)C[C@]1(C)NC(=O)[C@H](Cc2ccc3ccccc3c2)NC(=O)[C@H](Cc2ccc(OCCN)cc2)NC(=O)[C@@H]2CCC(=O)N[C@@H](CCCCNC(=O)CC[C@@H](C(=O)N[C@@H](CCN)C(=O)N[C@@H](Cc3cccnc3)C(N)=O)NC1=O)C(=O)N[C@@H]([C@@H](C)O)C(=O)N[C@@H](C(C)C)C(=O)N[C@@H](Cc1c[nH]c3ccccc13)C(=O)N[C@@H](CCC(N)=O)C(=O)N2) [Compound 2] 100%

Return reported % displacement; argument: [3Amb]SCWQC[AEF][2Nal][αMeL]ER[3Pal]-NH2 (lactam N-10; linker 3-6 via 1,3‑dibromopropan‑2‑one″) [Ref 78] 100%

Return reported % displacement; argument: K[βAla][Trp(1-Me)]QE[AEF][2Nal][αMeL]E[Dab][3Pal]-NHMe (lactam 1-9, 1-5; not fully specified; printed as K(1c)(6c)^†[3-Aminopropanoyl][1-Me-Trp]QE(6c)[Y(2-aminoethoxy)][2-Nal][2-Me-Leu]E(1c)[Dab][3-(3-Pyridyl)-Ala]-[NHMe], (1c) [2,11] lactam, (6c) [2,7] lactam, ^† alpha-amine in bridge; also: alpha-amine of residue 1 in bridge, which of the two lactams not given here) [Compound 79] 100%

Return reported % displacement; argument: [iso‑Lys]WQE[AEF][2Nal][αMeL]E[Dab][3Pal]-NHMe (lactam (positions not given here); not fully specified (bridges); printed as [iso-Lys](1c)^†(6c)WQE(6c)[Y(2-aminoethoxy)][2-Nal][2-Me-Leu]E(1c)[Dab][3-(3-Pyridyl)-Ala]-[NHMe], (1c) [2,11] lactam, (6c) [2,7] lactam, ^† alpha-amine in bridge) [Compound 102] 97%

Return reported % displacement; argument: Ac-KTCWQC[AEF][2Nal][αMeL]E[Dab][3Pal]-NH2 (lactam 1-10; linker 3-6 via 1,3‑dibromopropan‑2‑one″) [Ref 155] 97%

Return reported % displacement; argument: [dDab]TVWQD[AEF][2Nal][αMeL]E[Dab][3Pal]-NH2 (lactam 1-10, N-6; SMILES CC(C)C[C@]1(C)NC(=O)[C@H](Cc2ccc3ccccc3c2)NC(=O)[C@H](Cc2ccc(OCCN)cc2)NC(=O)[C@@H]2CC(=O)N[C@H](CCNC(=O)CC[C@@H](C(=O)N[C@@H](CCN)C(=O)N[C@@H](Cc3cccnc3)C(N)=O)NC1=O)C(=O)N[C@@H]([C@@H](C)O)C(=O)N[C@@H](C(C)C)C(=O)N[C@@H](Cc1c[nH]c3ccccc13)C(=O)N[C@@H](CCC(N)=O)C(=O)N2) [Compound 11] 104%
